Documented IC50 across a set of compounds
target: human VPS34 (Homo sapiens (Human)); experiment: Human VPS34 enzyme assay (Adapta TR-FRET ADP detection); type: biochemical; conditions: IC50 range class
Sequence (Q8NEB9 whole entry): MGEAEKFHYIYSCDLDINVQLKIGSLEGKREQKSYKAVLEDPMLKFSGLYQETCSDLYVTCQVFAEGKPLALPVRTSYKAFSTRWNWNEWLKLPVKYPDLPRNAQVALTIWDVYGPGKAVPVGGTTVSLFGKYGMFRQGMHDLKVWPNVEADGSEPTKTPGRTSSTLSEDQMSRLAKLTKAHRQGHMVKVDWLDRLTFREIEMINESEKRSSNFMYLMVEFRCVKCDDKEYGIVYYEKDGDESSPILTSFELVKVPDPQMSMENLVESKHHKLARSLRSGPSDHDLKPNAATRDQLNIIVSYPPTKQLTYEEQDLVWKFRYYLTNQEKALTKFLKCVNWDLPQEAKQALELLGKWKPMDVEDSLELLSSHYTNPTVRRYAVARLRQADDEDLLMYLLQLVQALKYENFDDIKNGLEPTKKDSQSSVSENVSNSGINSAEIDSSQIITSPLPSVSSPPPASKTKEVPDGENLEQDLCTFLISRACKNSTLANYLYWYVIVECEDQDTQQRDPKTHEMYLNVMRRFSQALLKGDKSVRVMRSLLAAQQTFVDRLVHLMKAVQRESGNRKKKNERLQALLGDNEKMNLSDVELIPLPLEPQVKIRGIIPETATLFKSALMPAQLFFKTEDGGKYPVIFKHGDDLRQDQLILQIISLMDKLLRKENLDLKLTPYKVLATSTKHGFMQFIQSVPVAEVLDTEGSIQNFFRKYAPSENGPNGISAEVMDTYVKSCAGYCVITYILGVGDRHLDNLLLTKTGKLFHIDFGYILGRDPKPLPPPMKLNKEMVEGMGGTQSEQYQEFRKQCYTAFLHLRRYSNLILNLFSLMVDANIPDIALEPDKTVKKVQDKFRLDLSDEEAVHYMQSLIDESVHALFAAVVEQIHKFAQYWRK

CC(=O)Nc1cc(-c2cnc(N)c(C(=O)NC3CC3)c2)ccn1 : 10 to 50 nM
CC(=O)Nc1cc(-c2cnc(N)c(C(=O)Nc3ccccc3Cl)c2)ccn1 : < 10 nM
CC(=O)Nc1cc(-c2cncc(N3CCOc4cc(F)ccc4S3(=O)=O)c2)ccn1 : 10 to 50 nM
COc1ncc(-c2ccnc(NC(C)=O)c2)cc1S(=O)(=O)Nc1cc(Cl)ccc1Cl : 10 to 50 nM
CC(=O)Nc1cc(-c2cnc3[nH]cc(CN4CCCC4)c3c2)ccn1 : > 100 nM
CC(=O)Nc1cc(-c2cnc(C)c(NS(=O)(=O)N(C)c3ccccc3)c2)ccn1 : 50 to 100 nM
CC(=O)Nc1cc(-c2cnc(N)c(S(=O)(=O)Nc3ccc4ccccc4c3)c2)ccn1 : 10 to 50 nM

Kindly consider the entry below.
[Q] Indicate its recorded IC50; the compound in question is "Cc1ncc(-c2ccnc(Nc3nc4ccccc4o3)c2)cc1NS(=O)(=O)c1ccc(F)cc1F"
[A] 10 to 50 nM

---

molecular target: UniProtKB Q8NEB9; assay: Human VPS34 enzyme assay (Adapta TR-FRET ADP detection); format: biochemical; conditions: IC50 range class
Overview of recorded IC50 for various compounds

Record excerpt, results attached:
Cc1ncc(-c2ccnc(Nc3ccccn3)c2)cc1NS(=O)(=O)c1ccc(F)cc1F : 10 to 50 nM
Cc1nccc(Nc2cc(-c3cc(NS(=O)(=O)c4ccc(F)cc4F)c4ccnn4c3)ccn2)n1 : < 10 nM

[Q] Annotate the compound "COC(=O)Nc1cc(-c2cnc(C)c(NS(=O)(=O)c3ccc(F)cc3F)c2)ccn1" with its measured IC50.
[A] < 10 nM

[Q] Output measured IC50 for this item: "Cc1nccc(Nc2cc(-c3cnc(C)c(C(=O)O)c3)ccn2)n1"
[A] 10 to 50 nM

[Q] Using the record for "CC(=O)Nc1cc(-c2cnc(C)c(NS(=O)(=O)c3ccc(C)cc3F)c2)c(C)cn1" , state its measured IC50.
[A] 50 to 100 nM

[Q] Fill in reported IC50 for this entry: "CC(=O)Nc1cc(-c2ccnc(Nc3ccnc(C)n3)c2)cn2nccc12"
[A] 10 to 50 nM

[Q] Entry "COc1ncc(-c2ccnc(Nc3ccnc(C)n3)c2)cc1C(=O)N(C)c1ccc(F)cc1F" needs its IC50 filled in; supply it.
[A] 10 to 50 nM

[Q] Assign IC50 to the following record: "CC(=O)Nc1cc(-c2cnc(C)c(NS(=O)(=O)c3cc(C)ccc3C)c2)ccn1"
[A] < 10 nM

[Q] Read the entry "CC(=O)Nc1cc(-c2cnc(C)c(NS(=O)(=O)c3cccc(F)c3Cl)c2)ccn1" and write its reported IC50.
[A] 10 to 50 nM

---

molecular target: human VPS34 (Homo sapiens (Human)); test: Human VPS34 enzyme assay (Adapta TR-FRET ADP detection); type: biochemical; details: IC50 range class
The compounds listed here are annotated with their IC50.

See these solved cases before continuing.
COc1ncc(-c2ccnc(NC(C)=O)c2)c(C)c1S(=O)(=O)NC(C)(C)C : 10 to 50 nM
CC(=O)Nc1cc(-c2cncc(C=O)c2)ccn1 : > 100 nM
CN(C(=O)c1cc(-c2ccnc(Nc3ccncn3)c2)cnc1N)C12CC(C1)C2 : 10 to 50 nM
Cc1ncc(-c2ccnc(Nc3ccnc(C(F)(F)F)n3)c2)cc1C(=O)N1CCC1 : 10 to 50 nM
Cc1nccc(Nc2cc(-c3cnc(C)c(NC(=O)N4CC(F)(F)C4)c3)ccn2)n1 : 50 to 100 nM

[Q] Determine its reported IC50: "CCc1c(-c2ccnc(NC(=O)C3CC3)c2)cnc(Cl)c1NS(=O)(=O)c1ccc(F)cc1F"
[A] 10 to 50 nM

[Q] Look up and state reported IC50 for "Cc1nccc(Nc2cc(-c3cnc(C)c(OC(C)C)c3)ccn2)n1"
[A] 10 to 50 nM

[Q] Give the value of IC50 reported for the following: "CCN(CC)S(=O)(=O)c1cc(-c2ccnc(NC(C)=O)c2)cnc1N"
[A] < 10 nM
